Assay: Study 2 Part A: multiple-dose (14 days) pharmacokinetics
Type: in vivo, human
Conditions: human, plasma, oral, 200 mg, 200 mg daily, Day 14; geometric mean; read-out: Vss/F
assay-endpoint: Vd/F at 14 days (L)
State just the number; it will be interpreted in L.

### Prompt Vd/F at 14 days lookup needed for CCC(CC)c1cc(C)nc2c(-c3sc(N4CCOCC4)nc3Cl)c(C)nn12 [Compound 1] , thanks.
### Response 5080

###

Test: Study 2 Part A: multiple-dose (14 days) pharmacokinetics
Format: in vivo, human
Conditions: human, plasma, oral, 50 mg, 50 mg daily, Day 14; geometric mean; read-out: AUC0-24h
assay-endpoint: AUC(0-t) (ng·h/mL)
Answer format: numeric, ng·h/mL implied, no suffix.

### Prompt # AUC(0-t) lookup, item `CCC(CC)c1cc(C)nc2c(-c3sc(N4CCOCC4)nc3Cl)c(C)nn12`
### Response 273

###

Test: Study 2 Part A: multiple-dose (14 days) pharmacokinetics
Assay type: in vivo, human
Details: human, plasma, oral, 200 mg, 200 mg daily, Day 14; geometric mean; read-out: AUC0-24h
assay-endpoint: AUC(0-t) (µg·h/mL)
Express the result in µg·h/mL but write the number alone.

### Prompt Look up AUC(0-t) for this compound: `CCC(CC)c1cc(C)nc2c(-c3sc(N4CCOCC4)nc3Cl)c(C)nn12`
### Response 2.04

###

Test: Study 1: single escalating oral dose pharmacokinetics, fed and fasted
Format: in vivo, human
Conditions: human, plasma, po, 150 mg, 150 mg single oral dose, fed; median; read-out: Tmax
assay-endpoint: Tmax (h)
Lab book: enter the figure in h, no units written.

### Prompt Using the record for CCC(CC)c1cc(C)nc2c(-c3sc(N4CCOCC4)nc3Cl)c(C)nn12 [Compound 1] , report its Tmax.
### Response 4

###

Test: Study 1: single escalating oral dose pharmacokinetics, fed and fasted
Type: in vivo, human
Conditions: human, plasma, po, 400 mg, 400 mg single oral dose, fed; geometric mean; read-out: AUC0-tlast
Procedure: Study 1 was the first-in-human study that investigated the safety, tolerability, and PK of single-escalating doses of Compound 1, given orally, to healthy adult subjects. […] The data from this study were used for the selection of doses for Study 2. […] PK parameters AUC0-∞ and Cmax were analyzed separately for dose proportionality for Compound 1 from 50 to 800 mg when administered in the fed state. […]
assay-endpoint: AUC(0-t) (ng·h/mL)
Write the answer as a number in ng·h/mL, unit excluded.

### Prompt # query: AUC(0-t) of entry CCC(CC)c1cc(C)nc2c(-c3sc(N4CCOCC4)nc3Cl)c(C)nn12 [Compound 1]
### Response 2300

###

Test: Study 1: single escalating oral dose pharmacokinetics, fed and fasted
Assay type: in vivo, human
Conditions: human, plasma, po, 800 mg, 800 mg single oral dose, fed; geometric mean
assay-endpoint: Cmax (ng/mL)
Reply with just the number (in ng/mL).

### Prompt Could you tell me which Cmax is on file for `CCC(CC)c1cc(C)nc2c(-c3sc(N4CCOCC4)nc3Cl)c(C)nn12` ?
### Response 382
